test: protein stability index of a GFP-peptide fusion (GPS, HEK-293T) (PSI 1-6); higher = more stable; conditions: treatment: MLN4924 1 uM, 8 h; c terminus: a fixed tail appended;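 also: 24-mer peptide tiles fused after GFP, lentivirally expressed, FACS-sorted into six equal bins by GFP/DsRed ratio, decoded by Illumina sequencing, PSI is the read-weighted mean bin number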
PROPERTY MEASURED: protein stability index

MONOMER SEQUENCE	ASSAY RESULT
SQVQVSLEDYINDRQYDSRGRFGE [HNF4A]	4.18
DQWNILQTPILEGRSGPGCAVLDD [KLHL14]	4.16
VLMDTQGAFDSQSTVKDCATIFAL [ATL3]	2.55
LGNFKDDLLNVCMRHVEKMCKADL [TRIM29]	2.47
SDMDRNKTILGNAHDNSEELERAR [ANKRD44]	5.57
YEETGFYEIEIQAEDGGAYLATAK [PCDHGA10]	3.72
KDGEYCWRWTGFNFGFDLLVTYTN [GMCL1]	2.89
EFGYNAETQKLLCKNGETLLGAVN [ARFIP2]	3.29
MKLSLGGSEMGLSSHLQSSKAGPT [KLHL13]	3.57
PDGGGPWLEDEPGRGAQGENERVR [ZSWIM9]	5.5
YLLQFARKPVEAESVEGVVRILLE [INTS4]	2.27
RQIIKLNRRLQLLEEENKERAKRE [MFF]	4.18
GVPNASVIMQVPERIVVAGNNEDV [MFF]	4.35
TGIIDSLTISPKAARVGLLQYSTQ [MATN2]	2.43
RRPEDQELESLSAIEAELEKVAHQ [CHGA]	5.3
LVVHTGCKDFLCQFCAQRFGRKDH [PLAGL1]	2.98
HDFFLQGFTPDRLSSSCCHTVPDF [PLK2]	2.73
VPQIFKYGETCFPKGRFERKRNPS [ZNF24]	3.93
EVHSLTLSPPEQAAQPMQPLPESL [PLAGL1]	5.02
GNCKYKVDCACLKENPECPVLKRS [KMT2E]	4.05
DWFSGHLNFQIEHHLFPTMPRHNY [FADS1]	2.07
PTQQDVLRTRVKTTGIVETHFTFK [GNAI1]	3.51
EPLEPEVKYVGNMHGNEALGRELM [CPN1]	4.82
KQIKAGAYDFPSPEWDTVTPEAKD [CAMK2A]	5.27
DKVLGTFEFDETSFWNSSHPRGWN [KLHDC2]	3.23
ELFEDIVAREYYSEADASHCIQQI [CAMK2B]	3.03
MMNQSMMGMNMNIGMSAAGMGLTG [CLINT1]	2.53

###

test: protein stability index of a GFP-peptide fusion (GPS, HEK-293T) (PSI 1-6); higher = more stable; settings: treatment: MLN4924 1 uM, 8 h; c terminus: a fixed tail appended
Each entry below lists one item and its recorded protein stability index value.
PROPERTY MEASURED: protein stability index

MONOMER SEQUENCE	PROPERTY MEASURED	ASSAY RESULT
RWETSSWSECSRTCGEGYQFRVVR [ADAMTSL2]	protein stability index	2.21
PSSFPSSSSSSSSSCYPLIPSTPE [MAGEA10]	protein stability index	4.45
VFLVSCALPDSVLRRFVVRTMCAV [AUP1]	protein stability index	2.67
QPPLSATVTLTVAVADSIPQVLAD [PCDHGA10]	protein stability index	2.7
FSGHFLCTSSWDKNLKIWNVHTGE [WDR88]	protein stability index	2.55
VASGLQFDVETRHVFIGDHSGQVT [WDFY2]	protein stability index	3.12
KRLCGLKVEVDMEKIAAEIAQAEE [SMARCE1]	protein stability index	3.63
FLGGVVRMTISLTVILIESTNEIT [CLCN6]	protein stability index	3.42
DPFDEIILFSLPPALDWDSVHVPG [PTPN9]	protein stability index	2.6
VMAWVKYSIQERRPQLPQVLQHVR [KLHL20]	protein stability index	2.04
TVLTRSLFLGRILSLTSSASRLLT [FANCE]	protein stability index	2.81
LPPEALTAPSGGQWGAEPEGSCYQ [RNF208]	protein stability index	4.73
AMPMQDIKMILKMVQLDSIEDLEV [PRAME]	protein stability index	2.25

###

assay: protein stability index of a GFP-peptide fusion (GPS, HEK-293T) (PSI 1-6); higher = more stable; settings: treatment: MLN4924 1 uM, 8 h; c terminus: a fixed tail appended
# if value of protein stability index reaches 4, tag 1; if it stays below, tag 0

MONOMER SEQUENCE	CAT
SFSEEGAVGYSSDSETLDLEEAEG [NFE2L1]	1
RYDHGTFFPMGDEGASSQIGRAAG [HDAC6]	1
DSFVVQYEDTNGQPQALLVDGDQS [TNXB]	1
EHKETSRNLHSHYHEAPMTRKHYQ [POMT2]	1
QQAMSLAILRVIRLVRVFRIFKLS [KCNA3]	0
PNAFIGSDVVDWLYHNVEGFTDRR [DVL3]	0
LDVECHEKEKHVNQLQTKVAVLEQ [SASS6]	1
IEVNGENVEDASHEEVVEKVKKSG [PDZK1]	1
RNVRFSDEGGFTCFFRDHSYQEEA [MOG]	0
LVLPLVPELLSTHPFFDTAEPDMD [INTS4]	0
ESPFSRKLDLWSFLDIPRSRLVKY [NET1]	0
RVAKKLQSGLVWTNCWLIRELNLP [ALDH8A1]	0

###

experiment: protein stability index of a GFP-peptide fusion (GPS, HEK-293T) (PSI 1-6); higher = more stable; conditions: treatment: DMSO; c terminus: native
Catalogue of sequences with associated protein stability index

MONOMER SEQUENCE	protein stability index
MLEMVPEKRASAGECLRHPWLNS [SRPK2]	3.79
LLTLLPQLQEAWQQRTPSPVPGG [RSAD1]	3.3
WQVLKTHPGDPRFQCSLWHLYPL [POLD4]	2.42
YSPRRSRGSPRYSPRHSRSRSRT [SRSF1]	4.18
MFLAMLAVVSCASIGSGEPPTGN [CDK11A]	2.67
EPELSPAYLISEAMRRSRMSLYC [GFOD1]	2.3
AAVPDEIPPLEGDEDASRMEEVD [HSP90AB1]	5.62

###

test: protein stability index of a GFP-peptide fusion (GPS, HEK-293T) (PSI 1-6); higher = more stable; conditions: treatment: MLN4924 1 uM, 8 h; c terminus: a fixed tail appended
If the reported protein stability index equals or exceeds 3, assign Yes. If not, assign No.

MONOMER SEQUENCE	CAT
CEEVKMTVASEAKIQLSDSEAKSH [FAN1]	Yes
HNLIEQVSLGLGQPWHAVMDIESL [FBXO33]	No
LANNQCMATESVDHELGRCTDSVV [EHMT1]	Yes
IPGKVIDEIYRVLRYVNSTRAPQR [FBXO28]	No
YAADRNCMWSKKCSGVACLVKDNP [WASL]	No
ALNSMLRRRFREKKKAIQEEEERD [YJU2B]	Yes
KSNGRGGSQAGGSGSAGQYGSDQQ [MYOZ1]	Yes
QKILCAKAENARLVVNIDNAKLAS [KRT34]	Yes
DEVDDFEDFIFSHFFGDKALKKRS [PBXIP1]	Yes
CRNCINLQNEAQKRESFLKYKCLL [IQUB]	No
SCSEICYTFIIVPKMLVDLLSQKK [OR10K2]	No
VEFDVLPAFDALGQLTGGYKPNPQ [OAS1]	No
HRELLRLESRIRDVHELFLQMAVL [STX11]	No
PRGSETERLLTPNPGYGTQAGPSP [MCOLN1]	Yes
EFETLYNEHKSCEEKSVKNTSIRV [CLK3]	Yes
SFLFLGCSHSFLLAVMGYDRYIAI [OR10K2]	No
NVEMDAAPGVDLSRILNEMRDQYE [KRT16]	Yes
SEEYRAPRPQSEESWDEEDKRNYP [CHGB]	Yes
YEIRVKTNLPIFKLKESTVRRRYS [SNX3]	No
SSLFDLSVLKLHHSLQQSEPDLRH [SERTAD1]	Yes
DFKSCPQGPQGREGLAFLVSCPEG [PWWP2B]	Yes
IDRMFPEMSIHLSRPNGTSAMLLV [MED27]	No
AEIQEACCEFLKRQLDPSNCLGIR [KLHL20]	No
RETYPRTPYVRWNYVAKNFAQALG [SOAT2]	No
CENFPEMATYLRYVRRLDFFEKPD [CSNK1G3]	No
VSLKQEGDDQPSETDHLSMEEEDP [TPRG1]	Yes
IRARELQNIYKCIMLKNISQDERL [IQUB]	No
LSFAAKQRELHSHVTNAMVLVNVL [DHCR7]	No
SQVSYFTYIPENNARGASIFSVTA [PCDHGA10]	No
KVVLSDAYAHPQQKVAVYRALQAA [TRADD]	Yes
FMHENLYFTNRKVNSVCWASLNHL [DCAF4]	No
QGKLIKRQRLAKNDRGDHYHWKDL [EFHC1]	Yes
GGPQRIPAHRFVLAAGSAVFDAMF [BTBD1]	No
SLGASPTVAGIVGSSYGILQLFSS [MFSD9]	No
EIPERRDSGVGASLTRSNRHRLRW [DLC1]	Yes
YMDTKLLVARFLEQSSCTMTPDIH [FAM189A2]	No
RSDGKTCAKLDSCALGDHGCEHSC [MATN2]	Yes
RRGIALIFNHERFFWHLTLPERRG [CASP6]	No
RLCLVCGDIASGYHYGVASCEACK [ESRRG]	Yes
GLLQDQGSGLSSRFEEPKGPPARQ [CBY2]	Yes
LPVGGRLPGPTRPVLGRRAVGGRL [HAGHL]	Yes
YPPLEGHVRQGVFSSLNHIVEKRV [INTS3]	Yes
VFAHCKEAPSTASSTPDSTEGGND [RTN2]	Yes
LLDNPLCADVLFILQDQEHIFAHR [RHOBTB1]	No
PLQGTDEDAVASADFSSMLSEEEK [TPD52L1]	Yes
GTETHGLVQVTLLDTVELATYCVR [PTPRD]	No
NQPSGLIRTYLGRSPLVSGDESSL [RHOBTB3]	Yes
SGYMEGYYTFHFLYFKDKIFNVAI [FBXO3]	No
VFCREGPTHQAHTVGFLDEAIQPY [TRIM15]	No
